Test system: CAKI-1
Assay: NCI tumour cell line growth inhibition, 48 h
Counter-ions that a name gives are not always drawn. The source made the active and inactive calls. Rule as the data show it: active = GI50 up to about 1.1 µM and inactive = higher.
measure: GI50

// query Find the recorded GI50 belonging to CC(=O)Nc1ccccc1C=C1c2ccccc2-c2ccccc21 and report it.
// result 63 µM (inactive)

// query Suppose we examine the compound O=C1NC2=NOC(=O)NC2=NO1 ; what GI50 value has been reported?
// result > 200 µM (inactive)

// query Tell me the measured GI50 of CN(CCNC(=O)c1nn(-c2ccccc2)c2c1Cc1ccccc1-2)CCNC(=O)c1nn(-c2ccccc2)c2c1Cc1ccccc1-2 , please.
// result 2.53 µM (inactive)

// query Requested read-out: GI50. Entry: COC(=O)[C@@H]1CS(=O)(=O)C(C(C)C)N1C(C)=O (stereo partly specified)
// result > 100 µM (inactive)

// query # query: GI50 of entry CN(C)CCOc1ccc2[nH]c(C(=O)N3CC(CCl)c4ccc(N)cc43)cc2c1 (stereo unspecified)
// result 0.0489 µM (active)

// query Find the recorded GI50 belonging to COC(=O)C(=O)C(C(=O)C(=O)Nc1ccc(Cl)cc1Cl)c1nc2ccc(Cl)cc2nc1O (stereo unspecified) and report it.
// result > 100 µM (inactive)

// query Would you mind telling me what GI50 value was observed for Oc1nc(S)nc(SCc2c(Cl)c(Cl)c(Cl)c(Cl)c2Cl)n1 ?
// result 30.6 µM (inactive)

// query Need GI50 of NS(=O)(=O)c1ccc(NC(=O)N/N=C/c2ccccc2[N+](=O)[O-])cc1 , thanks.
// result 44.8 µM (inactive)

// query Quick check: GI50 of Nc1cc([N+](=O)[O-])ccc1C(=O)N1CCC[C@H]1CO ?
// result > 100 µM (inactive)

// query Recorded GI50 of C[C@H](OCc1ccccc1)C(=O)N1CCS(=O)(=O)N2CCC[C@@H]2C1=O , please.
// result > 100 µM (inactive)

// query Suppose we examine the compound CCCOc1ccc(-c2nc(-c3ccc(/N=C/c4ccc(N(CCOS(C)(=O)=O)CCOS(C)(=O)=O)cc4C)cc3)cs2)cc1 ; what GI50 value has been reported?
// result 1.3 µM (inactive)

// query Given the compound C=CC(COC(=O)C(C)(C)OC(C)=O)c1ccc(OC(=O)C(C)C)c(OC)c1 (stereo unspecified) , what is its reported GI50?
// result 1.96 µM (inactive)

// query Quick check: GI50 of O=C1C=CC(=O)c2ncccc21 ?
// result 1.8 µM (inactive)

// query Any idea what GI50 was measured for COc1cc2c(cc1OCCCOc1cc3c(cc1OC)C(=O)N1CCC[C@H]1C(=O)N3)N=C[C@@H]1CCCN1C2=O ?
// result 29.9 µM (inactive)

// query For the compound shown here, O=c1c2ccccc2oc2ccccc12.Oc1cccc2cccnc12 , give the reported GI50.
// result 3.9 µM (inactive)

// query Consider the compound CCCc1cc(=O)oc2c3c(c4c(c12)OC(C)(C)CC4)O[C@H](C)[C@@H](C)[C@H]3O and give its measured GI50.
// result 20.5 µM (inactive)

// query Given the entry COc1cccc2c1Cc1cc(-c3ccccc3)[n+](C)n1-2 , report its measured GI50.
// result 66.8 µM (inactive)

// query GET /values?readout=GI50&item= CC(C)(C)OCC1NC(=O)[C@@H]2Cc3c([nH]c4ccccc34)C(c3ccccc3)N2C1=O (stereo partly specified)
// result > 50 µM (inactive)

// query // GI50 lookup, key: CCC(NC1=NCCO1)c1cccs1 (stereo unspecified)
// result 17.2 µM (inactive)

// query Given the entry Cc1ccc(O)cc1.Cc1cccc(O)c1.Cc1ccccc1O , report its measured GI50.
// result > 100 µM (inactive)

// query What does the data say about its GI50? Entry: O=c1cc[nH]c2ccc3nn[nH]c3c12
// result > 100 µM (inactive)

// query Entry under review: O=[N+]([O-])c1ccc2c3ccccc3[s+]([O-])c2c1 (stereo unspecified) . Reported GI50?
// result > 100 µM (inactive)

// query // GI50 lookup, key: COc1cc2c3c(c1OC)C1(C=CC(=O)C=C1)CC3NCC2 (stereo unspecified)
// result > 100 µM (inactive)

// query Can you look up the measured GI50 of CCN(CC)c1ccc2cc(C(=O)Nc3ccccn3)c(=N)oc2c1 for me?
// result > 100 µM (inactive)

// query Using the record for CC(=O)Nc1ccc(C2CC(c3ccc([N+](=O)[O-])cc3)=Nc3ccccc3S2)cc1 (stereo unspecified) , report its GI50.
// result 24 µM (inactive)

// query May I ask what GI50 has been recorded for O=C(c1ccccc1)c1ccc2c(c1)N=C(c1ccc(Cl)c(Cl)c1)CC(c1ccc3ccccc3c1)N2 (stereo unspecified) ?
// result > 100 µM (inactive)

// query I have this compound here, CN(C)c1ccc2oc(=O)c3ccccc3c2c1 , and I need its recorded GI50.
// result 28.9 µM (inactive)

// query Request the reported GI50 associated with CCC1(N=[N+]=[N-])C(=O)c2ccccc2N(c2ccccc2)C1=O (stereo unspecified)
// result > 100 µM (inactive)

// query Reported GI50, compound Cc1csc(N/C=C2\C(=O)Oc3ccccc3C2=O)n1 : ____
// result 19.8 µM (inactive)

// query Look at this compound and give its reported GI50. COC(=O)C(CNC(=O)/C=C/c1ccc(OC)c(OC)c1)NC(=O)/C=C/c1ccc(OC)c(OC)c1 (stereo unspecified)
// result > 100 µM (inactive)

// query // lookup GI50 for COC(=O)C(C)Sc1nc2cc(Cl)ccc2s1 (stereo unspecified)
// result > 100 µM (inactive)

// query Quick one: GI50 for O=C1c2c(O)ccc(O)c2C(=O)c2c(NCCNCCO)ccc(NCCNCCO)c21 [MITOXANTRONE HYDROCHLORIDE] ?
// result 0.00899 µM (active)

// query # query: GI50 of entry C(=N\c1ccc(-c2nc3ccccc3[nH]2)cc1)/c1ccco1
// result > 100 µM (inactive)

// query Which GI50 is listed for O=C(O)CCC(NC(=O)c1ccc(Nc2nc3ccc(C(F)(F)F)cc3nc2-c2ccccc2)cc1)C(=O)O (stereo unspecified) ?
// result > 57.8 µM (inactive)

// query Query: GI50; subject: OCC(O)C(O)C(O)C1SC(c2ccccc2)=NN1c1ccccc1 (stereo unspecified)
// result > 100 µM (inactive)

// query What value of GI50 has been reported for the following compound? COC(=O)[C@H]1[C@@H](O)[C@@]2(O)c3c(OC)cc(OC)cc3O[C@@]2(c2ccc3c(c2)OCO3)[C@@H]1c1ccccc1
// result 0.00893 µM (active)

// query Would you kindly share the measured GI50 for CCOC(=O)CC(=O)Nc1c(C(=O)OCC)sc2nc(SC)nc(Nc3ccc(OC)c(OC)c3)c12 ?
// result 64 µM (inactive)

// query Recorded GI50 for Cc1ccc2c(c1)[nH]c(=S)n2/C=C1\C(=O)Oc2ccccc2C1=O , please?
// result 19.6 µM (inactive)

// query Name the recorded GI50 for C1=C\SS/C=C\SS/1 .
// result > 10 µM (inactive)

// query Query: GI50; subject: COc1cc2c(cc1OC)[C@@](C)(C(O)C(O)C(C)(C)O)NCC2 (stereo partly specified)
// result > 100 µM (inactive)

// query Fill blank: measured GI50 of the compound C[C@]12CC/C(=N\OCCN3CCCC3)C=C1CCC1C2CC[C@@]2(C)C1CC[C@]2(C)O (stereo partly specified) is ____.
// result 7.43 µM (inactive)
